- System: 6C3HED lymphosarcoma
- experimental_protocol: animal or person
- Type: in vivo
- study_conditions: IP, 150 mg/kg, DX 8
Readings of Tox/Tot (mice which died / total) for the listed compounds

# compound, Tox/Tot (mice which died / total)
records = [
    ("Cc1ccc(NC(=O)N=S(N)(=O)c2ccc(C)cc2)cc1 (centres unmarked)", "0/10"),
]

Memo: Cc1cc(S(N)(=O)=NC(=O)Nc2ccc(Cl)cc2)cc(C)c1Cl (centres unmarked) , reported Tox/Tot (mice which died / total): 2/10

Memo: CC(=O)NS(=O)(=NC(=O)Nc1ccc(Cl)cc1)c1ccc(C)cc1 (centres unmarked) , reported Tox/Tot (mice which died / total): 0/10

Memo: N=S(=O)(NC(=O)Nc1ccc(Cl)cc1)c1ccc(C=O)cc1 (centres unmarked) , reported Tox/Tot (mice which died / total): 0/10

Memo: CCCNS(=O)(=NC(=O)Nc1ccc(Cl)cc1)c1ccc(C)cc1 (centres unmarked) , reported Tox/Tot (mice which died / total): 0/10

Memo: CC(=O)OCc1ccc(S(=N)(=O)NC(=O)Nc2ccc(Cl)cc2)cc1 (centres unmarked) , reported Tox/Tot (mice which died / total): 8/10

Memo: CCN=S(=O)(NC(=O)Nc1ccc(Cl)cc1)c1ccc(C)cc1 (centres unmarked) , reported Tox/Tot (mice which died / total): 0/10

Memo: Cc1ccc(S(=O)(=NC(=O)Nc2ccc(Cl)cc2)Nc2ccccc2)cc1 (centres unmarked) , reported Tox/Tot (mice which died / total): 2/10

Memo: NS(=O)(=NC(=O)Nc1ccc(Cl)cc1)c1ccc(CO)cc1 (centres unmarked) , reported Tox/Tot (mice which died / total): 0/10

Memo: N=S(=O)(NC(=O)Nc1ccc(Cl)cc1)c1ccc2c(c1)CCC2 (centres unmarked) , reported Tox/Tot (mice which died / total): 1/10

Memo: Cc1ccc(S(=N)(=O)NC(=O)Nc2ccc(Cl)cc2)cc1 (centres unmarked) , reported Tox/Tot (mice which died / total): 1/10

###

- System: 6C3HED lymphosarcoma
- experimental_protocol: animal or person
- Type: in vivo
- study_conditions: oral, 100 mg/kg, BIDX 8
measured_parameter: Tox/Tot (mice which died / total)

# compound, tgt, Tox/Tot (mice which died / total)
records = [
    ("Cc1ccc(S(=N)(=O)NC(=O)Nc2ccc(Cl)cc2)cc1 (centres unmarked) [Example 2]", "6C3HED lymphosarcoma", "0/10"),
    ("CCc1ccc(S(=N)(=O)NC(=O)Nc2ccc(Cl)cc2)cc1 (centres unmarked) [Example 33]", "6C3HED lymphosarcoma", "0/10"),
    ("CN=S(=O)(NC(=O)Nc1ccc(Cl)cc1)c1ccc(C)cc1 (centres unmarked) [Example 3]", "6C3HED lymphosarcoma", "0/10"),
    ("Cc1cc(C)cc(S(N)(=O)=NC(=O)Nc2ccc(Cl)cc2)c1 (centres unmarked) [Example 39]", "6C3HED lymphosarcoma", "0/10"),
]

As a next step, examine the compound that follows.
Memo: Cc1ccc(S(=N)(=O)NC(=O)Nc2ccc(Cl)cc2)cc1C (centres unmarked) [Example 36] , reported Tox/Tot (mice which died / total): 8/8

###

- Tested on: 6C3HED lymphosarcoma
- experimental_protocol: animal or person
- Type: in vivo
- study_conditions: oral, 150 mg/kg, BIDX 8
Readings of Tox/Tot (mice which died / total) for the listed molecules

Below: 2 molecules and their reported Tox/Tot (mice which died / total).
# molecule, tgt, obs_value
rows = [
    ("Cc1ccc(S(N)(=O)=NC(=O)N(C)c2ccc(Cl)cc2)cc1 (stereo not drawn)", "6C3HED lymphosarcoma", "0/10"),
    ("Cc1ccc(S(=O)(=NC(=O)Nc2ccc(Cl)cc2)NCCCO)cc1 (stereo not drawn)", "6C3HED lymphosarcoma", "0/10"),
]

Memo: Cc1ccc(S(=O)(=NC(=O)Nc2ccc(Cl)cc2)NCc2ccccc2)cc1 (stereo not drawn) , reported Tox/Tot (mice which died / total): 0/9

Memo: NS(=O)(=NC(=O)Nc1ccc(Cl)cc1)c1ccc(CO)cc1 (stereo not drawn) , reported Tox/Tot (mice which died / total): 2/10

Memo: CC(=O)N(C)S(=O)(=NC(=O)Nc1ccc(Cl)cc1)c1ccc(C)cc1 (stereo not drawn) , reported Tox/Tot (mice which died / total): 1/10

Memo: CCCCCCNS(=O)(=NC(=O)Nc1ccc(Cl)cc1)c1ccc(C)cc1 (stereo not drawn) , reported Tox/Tot (mice which died / total): 0/10

Memo: Cc1ccc(S(=N)(=O)NC(=O)Nc2ccc(Br)cc2)cc1 (stereo not drawn) , reported Tox/Tot (mice which died / total): 0/10

Memo: Cc1ccc(S(=O)(=NC(=O)Nc2ccc(Cl)cc2)NCCc2ccccc2)cc1 (stereo not drawn) , reported Tox/Tot (mice which died / total): 0/10

Memo: CCc1ccc(S(=N)(=O)NC(=O)Nc2ccc(Cl)cc2)cc1 (stereo not drawn) , reported Tox/Tot (mice which died / total): 8/10
